Test system: HCC-2998 colon
protocol_details: NCI tumour cell line growth inhibition, 48 h

{"columns": ["compound", "TGI"],
 "data": [
  ["c1csc(C(NC2=NCCO2)C2CC2)c1 (stereo not drawn)", "> 100 µM"],
  ["Cc1nn2c(-c3nc4cc(Cl)c(Cl)cc4[nH]3)c(-c3ccc(F)cc3)nc2s1", "> 100 µM"],
  ["COCCOCCOCCC(=O)NC1CC2CCC1(C)C2(C)C (stereo not drawn)", "> 100 µM"]
]}

====

molecules and their reported TGI
Tested on: SK-MEL-28 melanoma
protocol_details: NCI tumour cell line growth inhibition, 48 h

{"columns": ["molecule", "TGI"],
 "data": [
  ["Nc1nc2c(c(=O)[nH]1)NC(CCNc1ccc(C(=O)O)cc1)CN2 (stereo unspecified)", "> 100 µM"],
  ["O=C(O)Cn1ccc(=O)c2c([N+](=O)[O-])cccc21", "> 100 µM"],
  ["COc1ccc2nc(-c3ccc(O)cc3)ccc2c1", "> 100 µM"],
  ["Cc1cc(-c2ccco2)cc(C)c1/C=C/c1cncc(-c2nn[nH]n2)c1", "> 25 µM"],
  ["COc1ccc2c(C(=O)c3c(C)n(CCN4CCOCC4)c4ccccc34)cccc2c1", "> 100 µM"],
  ["O=C1Nc2ccccc2C1S(=O)(=O)c1ccccc1 (stereo unspecified)", "> 100 µM"]
]}

====

Tested on: HOP-62 NSCLC
protocol_details: NCI tumour cell line growth inhibition, 48 h
Listed compounds paired with reported TGI

{"columns": ["compound", "TGI"],
 "data": [
  ["O=C(Nc1ccc(Cl)c(Cl)c1)C1C(=O)N(c2ccc(Cl)c(Cl)c2)C(=O)/C1=N\\O (stereo not drawn)", "> 100 µM"],
  ["CC(=O)Oc1ccc(/C=C/C(=O)NCCOC(=O)/C=C/c2ccc(OC(C)=O)c(OC(C)=O)c2)cc1OC(C)=O", "> 100 µM"],
  ["Cn1cnnc1SC(F)(F)c1nc2ccccc2o1", "> 100 µM"]
]}

====

System: BT-549 breast
protocol_details: NCI tumour cell line growth inhibition, 48 h
# TGI >= 30 µM gives label 1, anything below gives label 0

{"columns": ["molecule", "label_value"],
 "data": [
  ["CN(C)c1ccc2c(c1)OC(N)=C(C#N)C2c1ccc2c(c1)CCCN2C (stereo unspecified)", "label 0"],
  ["NCC(Cc1ccccc1)P(=O)(O)O (stereo unspecified)", "label 1"],
  ["C=CC[PH+](c1ccccc1)c1ccccc1.C=CC[PH+](c1ccccc1)c1ccccc1.[Pt+2].[S-]c1ncccn1.[S-]c1ncccn1", "label 1"],
  ["Cc1ccc(NC(=O)c2ccc(NC3=C(Cl)C(=O)N(Cc4ccccc4)C3=O)cc2)cc1Cl", "label 0"],
  ["C=CC(C)(O)CCC1C(=C)C(O)CC2C(C)(C)CCCC12C (stereo unspecified)", "label 1"],
  ["COC1(c2ccccc2)NC(=S)NN=C1c1ccccc1 (stereo unspecified)", "label 1"],
  ["Cn1cnnc1SC(F)(F)c1nc2ccccc2o1", "label 1"],
  ["CSC1(Cc2ccccn2)C(=O)Nc2cccc([N+](=O)[O-])c21 (stereo unspecified)", "label 1"],
  ["CON(C)C(=O)C(C)NC(=O)OC(C)(C)C (stereo unspecified)", "label 1"],
  ["Cc1n(Cc2ccc3ccccc3n2)cc[n+]1Cc1ccc2ccccc2c1", "label 0"],
  ["CC(=O)c1sc2c(c1O)c(=O)n(-c1ccccc1)c(=S)n2-c1ccccc1", "label 1"],
  ["Nc1n[nH]c2ccc([C@@H]3Nc4c(F)cc5[nH]ncc5c4[C@H]4C5CCC(C5)[C@@H]34)cc12 (stereo partly specified)", "label 1"],
  ["O=C(CN(/C=C/C(=O)C(F)(F)F)c1ccccc1)c1ccc(F)cc1", "label 1"],
  ["Cc1ccccc1CNc1c2ccccc2nc2ccccc12", "label 0"],
  ["CC(=O)Nc1sccc1S(=O)(=O)c1ccc(Cl)cc1", "label 1"],
  ["OC1CSCCSCCCSCCSC1", "label 1"],
  ["COc1ccc(C(=O)/C=C/c2ccc(OCc3ccccc3)c(OC)c2)cc1OC", "label 0"],
  ["O=C1c2ccccc2/C=C\\C(c2ccccc2)=N/N1c1ccccc1Cl", "label 0"]
]}

====

Test system: M14 melanoma
protocol_details: NCI tumour cell line growth inhibition, 48 h

{"columns": ["compound", "TGI"],
 "data": [
  ["Nc1ncc(Sc2ccccc2C(=O)O)s1", "> 100 µM"],
  ["CC(=O)O[C@H]1C[C@@H](OC(C)=O)[C@@](C)(O)[C@@H]2[C@@H](OC(C)=O)[C@@]3(O)[C@H](/C=C(/CCl)[C@H]4O[C@H]4[C@@H](OC(C)=O)[C@@]12C)OC(=O)[C@@H]3C", "> 25 µM"],
  ["C=CC1(O)CCCC=C1COCc1ccccc1 (stereo unspecified)", "> 100 µM"],
  ["Cc1cc(-c2ccco2)cc(C)c1/C=C/c1cncc(-c2nn[nH]n2)c1", "> 25 µM"],
  ["Cn1cnnc1SC(F)(F)c1nc2ccccc2o1", "> 100 µM"],
  ["O[C@]12c3ccccc3C1CCCCC2N1CCOCC1 (stereo partly specified)", "> 100 µM"]
]}

====

System: UO-31 renal
protocol_details: NCI tumour cell line growth inhibition, 48 h
Label rule, in plain words: TGI of 30 µM and up is yes, under 30 µM is no.

{"columns": ["molecule", "label_value"],
 "data": [
  ["N=C(N)c1ccc(N=Nc2c(O)ccc3cc(O)ccc23)cc1", "yes"],
  ["CCOc1cc2c(cc1O)CC[C@@H]1[C@@H]2CC[C@]2(C)[C@@H](O)CC[C@@H]12", "yes"],
  ["Cc1ccc(O)cc1Nc1ccnc2cc(-c3ccccn3)ccc12", "no"],
  ["CCN(CC)C(=S)SSCCO", "yes"],
  ["C=C1C(=O)O[C@@H]2[C@H]1C[C@H](I)[C@@]1(C)CC[C@H](O1)[C@](C)(I)CCCC(C)[C@@H]2O (some centres not stated)", "no"],
  ["O=C1c2ccccc2-c2c1c1ccc([N+](=O)[O-])cc1c(=O)n2CCCCl", "yes"],
  ["C/C(CC(=O)Nc1cccc(Cl)c1C)=N\\N=C(N)N", "yes"],
  ["O=C1C2C(C(=O)N1CC[Se][Se]CCN1C(=O)C3C(C1=O)[C@H]1C=C[C@@H]3C1)[C@H]1C=C[C@@H]2C1 (some centres not stated)", "no"],
  ["COc1cccc(/C=C2/S/C(=N/Nc3nc(C)c(C(C)=O)s3)NC2=O)c1O", "yes"],
  ["C1CCN2CC3CONC3C2C1 (configuration not stated)", "yes"],
  ["C=CCCCCCCCCC(=O)ON(Cc1ccc(O)c(OC)c1)C(=O)C(F)(F)F", "yes"],
  ["CN1CC[C@]23c4c5ccc(O)c4OC2c2[nH]ncc2C[C@H]3[C@H]1C5 (some centres not stated)", "yes"],
  ["C=CC(C)(O)CCC1C(=C)C(O)CC2C(C)(C)CCCC12C (configuration not stated)", "no"],
  ["CC1=NNC(=O)[C@H]2[C@H]1CCC1[C@@H]2CC[C@]2(C)[C@@H](O)CC[C@@H]12 (some centres not stated)", "yes"],
  ["CCOC(=O)[C@H]1Nc2c(cccc2[N+](=O)[O-])C2c3ccccc3CC21 (some centres not stated)", "yes"]
]}

====

Test system: LOX IMVI melanoma
protocol_details: NCI tumour cell line growth inhibition, 48 h
List of TGI values.
assay_readout: TGI

{"columns": ["compound", "assay_readout", "result"],
 "data": [
  ["CCN(CC)C(=O)CCCCCn1c2ccccc2c2c3c(c4c5ccccc5[nH]c4c21)C(=O)N(O)C3=O", "TGI", "2.88 µM"],
  ["O=c1[nH]c(=S)[nH]c2c(C3OC(CO)C(O)C3O)nsc12 (stereo unspecified)", "TGI", "> 100 µM"],
  ["O=S(=O)(/N=C(\\NO)Nc1ccc(Cl)cc1)c1cc(S(=O)(=O)c2ccccc2)cs1", "TGI", "39 µM"],
  ["CC1(C)OC2OC(COC(=O)C(c3ccccc3)c3ccccc3)C3OC(C)(C)OC3C2O1 (stereo unspecified)", "TGI", "> 100 µM"],
  ["Cc1cc(NS(=O)(=O)c2ccc(NC(=O)c3ccc4nc5ccccc5c(Nc5ccc(S(=O)(=O)Nc6cc(C)on6)cc5)c4c3)cc2)no1", "TGI", "> 50 µM"],
  ["COc1ncc2cc1NS(=O)(=O)c1cccc(c1)C(=O)NCC1=CC=C(S1)c1ncnc3c1SC2=C3C", "TGI", "0.499 µM"],
  ["CC1=C(C(=O)CC(=O)C(=O)Nc2ccccc2C)Sc2ccccc2N1", "TGI", "> 57.4 µM"],
  ["O=c1c2ccccc2n2cnc3ccc(NCCNCCO)c1c32", "TGI", "2.8 µM"],
  ["O=c1[nH]c(=O)n(C2CC(O)C(O)C(CO)O2)cc1F (stereo unspecified)", "TGI", "> 100 µM"],
  ["CC(C)=CC(=O)CC(=O)C(=O)NCCNC(=O)C(=O)CC(=O)C=C(C)C", "TGI", "> 50 µM"],
  ["Cc1ccccc1CNc1c2ccccc2nc2ccccc12", "TGI", "2.93 µM"],
  ["Cc1cc(OC(=O)Nc2ccc(Cl)cc2)ccc1C(=S)Nc1ccccc1", "TGI", "> 100 µM"],
  ["C=CC1(O)CCCC=C1COCc1ccccc1 (stereo unspecified)", "TGI", "40.7 µM"],
  ["COc1cccc(/C=N/[N-]C(N)=O)c1[O-].[OH3+].[Pd+2]", "TGI", "> 100 µM"],
  ["CCN(CCCl)c1cc(CN(C)C)cc(NC(=O)c2cc(C(=O)Nc3cc(CN(C)C)cc(N(CC)CCCl)c3)n(C)n2)c1", "TGI", "0.26 µM"],
  ["N#Cc1cccc(C2C3=C(COC3=O)N(CCO)c3cc4c(cc32)CCC4)c1 (stereo unspecified)", "TGI", "> 44.9 µM"],
  ["COC1(c2ccccc2)NC(=S)NN=C1c1ccccc1 (stereo unspecified)", "TGI", "> 100 µM"],
  ["Cc1csc(CCC(N)C(=O)O)n1 (stereo unspecified)", "TGI", "> 100 µM"],
  ["C1=C(c2ccccc2)C(OC2Oc3ccccc3C=C2c2ccccc2)Oc2ccccc21 (stereo unspecified)", "TGI", "> 100 µM"],
  ["O=C1Nc2ccccc2C1S(=O)(=O)c1ccccc1 (stereo unspecified)", "TGI", "> 100 µM"],
  ["COC(=O)C1=Nc2ccc(F)cc2/C1=C/c1sc(=S)[nH]c1O", "TGI", "> 32.6 µM"]
]}
